- assayed-target: SARS-COV-2 RBD extracellular domain expressed with a C-terminal mouse IgG2a (SARS-COV-2 RBD-mFc) (SARS-CoV-2)
- test-method-notes: SPR, captured mAb, RBD-mFc in solution, 37 C

>  <binder>
mAb10939 (antibody, V domains shown) VH: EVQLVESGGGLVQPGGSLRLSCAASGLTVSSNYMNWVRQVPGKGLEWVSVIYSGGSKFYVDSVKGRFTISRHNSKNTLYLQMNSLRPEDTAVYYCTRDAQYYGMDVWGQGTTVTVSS VL: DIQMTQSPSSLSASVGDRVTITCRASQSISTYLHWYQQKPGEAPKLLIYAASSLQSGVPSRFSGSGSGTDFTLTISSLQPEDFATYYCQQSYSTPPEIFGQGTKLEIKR

>  <t½>
1.17 h

$$$$
>  <binder>
mAb10967 (antibody, V domains shown) VH: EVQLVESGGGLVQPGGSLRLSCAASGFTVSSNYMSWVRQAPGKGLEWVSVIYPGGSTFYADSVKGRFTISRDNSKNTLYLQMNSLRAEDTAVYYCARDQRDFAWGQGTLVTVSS VL: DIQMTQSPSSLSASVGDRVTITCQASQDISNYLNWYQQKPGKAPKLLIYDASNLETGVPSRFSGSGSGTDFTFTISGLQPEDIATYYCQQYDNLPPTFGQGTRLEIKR

>  <t½>
5.78 h

$$$$
>  <binder>
mAb10964 (antibody, V domains shown) VH: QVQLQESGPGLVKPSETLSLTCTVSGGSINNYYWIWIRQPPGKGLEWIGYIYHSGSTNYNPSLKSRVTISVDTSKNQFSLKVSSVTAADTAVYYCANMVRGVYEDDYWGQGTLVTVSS VL: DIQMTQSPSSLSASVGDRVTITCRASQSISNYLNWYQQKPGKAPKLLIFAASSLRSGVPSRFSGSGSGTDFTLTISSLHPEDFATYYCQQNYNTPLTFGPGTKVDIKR

>  <t½>
1.53 h

$$$$

These measurements were taken from patent US20240043504A1.
